assay: E. coli growth modulation, two-sided OD650, primary screen, E. coli filamentation project, strain DRC41, 24 h (AID 1093); details: OD650, 24 h, higher = more signal, called active from +8 up or from −8 down;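 also: MC1000 strain lacking acrAB efflux and sulA so SOS filamentation is blocked; test concentration not given here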
Active and inactive are the calls of the source.
Provide the recorded z-score for the entries that follow.

{"Compound": "CC(C)C(=C=CC[C@@H](O)c1cccc(OCCO)c1)C[C@@H](O)COCc1ccccc1", "z-score": "1.61 (inactive)"}
{"Compound": "[N-]=[N+]=Nc1ccccc1C[C@]1(C(=O)O)N=C(c2ccc(OCCCO)cc2)O[C@H]1c1ccccc1N=[N+]=[N-]", "z-score": "0.814 (inactive)"}
{"Compound": "C=C(COC)/C(=C/C[C@@H](OC(=O)c1ccncc1)c1ccccc1OCCO)c1cc(C(=O)OC)ccc1OC", "z-score": "0.0184 (inactive)"}
{"Compound": "COC(=O)[C@@]1(Cc2ccccc2)[C@H]2c3cc(C(=O)N4CCCC4)n(CCSCCO)c3C[C@H]2CN1C(=O)c1ccccc1", "z-score": "-1 (inactive)"}
{"Compound": "Cc1cccc([C@H]2C[C@H]3C(I)=C[C@@H]2C(=O)[C@]32CO2)c1", "z-score": "-0.2 (inactive)"}

For each of the compounds below, state z-score.
1. COc1ccc(C(O)C2C=CC3C(=O)N(c4ccccc4)C(=O)C3N2Nc2ccccc2)cc1 (centres undefined)
2. C=C(C(=O)CC[C@H](OC(=O)c1ccccc1-c1ccccc1C(=O)O)c1ccccc1OCCO)C(C)C
3. C=CCNC(=O)[C@@H]1[C@H]2C(=O)O[C@H](c3ccccc3)[C@H](c3ccccc3)N2[C@H](c2ccc(OCCO)cc2)[C@@]12C(=O)N(C(=O)OCCOC)c1ccc(C#CCCO)cc12
4. CCOC(=O)C1=C[C@@H](C(C)(C)C)N(S(=O)(=O)c2ccc(C)cc2)[C@H]1c1ccc(C)cc1
5. C#C[C@@H](CC)O[Si](C#CCCCC#N)(C(C)C)C(C)C
6. NC(=O)[C@H]1[C@@H]2C(=O)O[C@@H](c3ccccc3)[C@@H](c3ccccc3)N2[C@@H](c2ccc(O)cc2)[C@]12C(=O)Nc1ccc(C#CC3=CCCCC3)cc12

1: -0.701 (inactive); 2: 0.968 (inactive); 3: 2.17 (inactive); 4: -1.38 (inactive); 5: 0.619 (inactive); 6: -1.32 (inactive)

For each of the compounds below, state z-score.
1. [N-]=[N+]=NCc1ccccc1C[C@@]1(C(=O)N2CCCCC2)N=C(c2ccc(OCCCO)cc2)O[C@@H]1c1ccccc1CN=[N+]=[N-]
2. CC(=O)NCCCC[C@@H]1NC(=O)[C@H]2C[C@@H](C(=O)NCCCCCNC(=O)CS)[C@@H](c3cccc(OCCO)c3)N2C1=O
3. CCOC(=O)C1=CCC(c2ccccc2)N(S(=O)(=O)c2ccc([N+](=O)[O-])cc2)C1 (centres undefined)
4. CC(C)C[C@@H]1NC(=O)[C@@]23C(=O)N[C@@H](Cc4ccccc4)C2[C@H](C)[C@@]2(C)O[C@H]2C3/C=C/C/C=C\CNC(=O)[C@@H](C)NC1=O (some centres undefined)
5. CCOC(=O)C[C@H]1[C@H](OC(=O)c2ccccc2-c2ccccc2)[C@@H](NC(=O)c2ccc3ccccc3n2)c2cc(OCCCO)ccc2N1C(=O)c1ccccc1
6. CCCNC(=O)[C@@]1(Sc2ccc(C)cc2)CC(=O)N(C2CCCCC2)[C@@H]1c1ccc(CO)cc1I
7. COc1cc(C(O)C2C=CC3C(=O)N(Cc4ccccc4)C(=O)C3N2n2cnnc2)cc(OC)c1OC (centres undefined)
8. CC(C)C[C@@H]1NC(=O)[C@@H]2C[C@H](C(=O)NCCCCCC[N+](C)(C)C)[C@H](c3cccc(OCCO)c3)N2C1=O

["0.76 (inactive)", "-0.418 (inactive)", "-0.319 (inactive)", "0.624 (inactive)", "-0.943 (inactive)", "0.19 (inactive)", "0.582 (inactive)", "-0.209 (inactive)"]

---

assay: MM1S myeloma cell viability, profiling panel, resazurin fluorescence, basal, 24 h, PK04 Diversity Set (AID 1174); conditions: higher = more signal, called active from +8 up or from −8 down;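 also: MM1S multiple myeloma cell line; test concentration not given here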
Endpoint: z-score
Numbers only.

// below: answered compounds
{"Compound": "COC(=O)C(CC#Cc1ccc2c(c1)[C@]1(C(=O)N2)[C@H](c2ccc(OCCO)cc2)N2[C@H](c3ccccc3)[C@H](c3ccccc3)OC(=O)[C@H]2[C@@H]1C(=O)N1CCN(c2ncccn2)CC1)C(=O)OC", "Endpoint": "z-score", "Recorded Measurement": -0.382}
{"Compound": "COCCOC(=O)N1C(=O)[C@@]2(c3cc(C#CCC(C(=O)OC)C(=O)OC)ccc31)[C@H](C(=O)NC[C@H](O)c1ccccc1)[C@H]1C(=O)O[C@H](c3ccccc3)[C@H](c3ccccc3)N1[C@@H]2c1ccc(OCCO)cc1", "Endpoint": "z-score", "Recorded Measurement": -0.0535}
{"Compound": "O=C1[C@@]23C=C(Br)[C@H](C[C@@H]2COC3)[C@@]12CO2", "Endpoint": "z-score", "Recorded Measurement": -0.402}
{"Compound": "CC(C)C(CO)N1C(=O)[C@@H]2[C@H]3C(=O)OCC=C[C@H]3OC23C=CCN(C(C)(C)C)C(=O)[C@@H]13 (stereo not given in full)", "Endpoint": "z-score", "Recorded Measurement": -0.763}

For each of the compounds below, state z-score.
1. O=C1N(CCS(=O)(=O)c2ccccc2)Cc2ccccc2[C@@H]2OC(c3ccc(OCCCO)cc3)=N[C@]12CCS(=O)(=O)c1ccccc1
2. CN(C)CCCC[C@@H]1NC(=O)[C@@H]2C[C@H](C(=O)O)[C@H](c3cccc(OCCO)c3)N2C1=O

1. 0.298
2. 0.472

For each of the compounds below, state z-score.
1. O=C1C[C@@](C(=O)NCc2ccccc2)(c2ccc([N+](=O)[O-])cc2)[C@@H](c2ccc(CO)cc2I)N1CC12CC3CC(CC(C3)C1)C2
2. CC(C)C[C@@H]1NC(=O)[C@H]2C[C@@H](C(=O)NCCCCCN)[C@@H](c3cccc(OCCO)c3)N2C1=O
3. Cc1cccc([C@H]2C[C@H]3C(Br)=C[C@@H]2C(=O)[C@]32CO2)c1
4. O=c1cccc(-c2ccco2)o1

-1.73
-0.178
-0.423
0.0232

---

assay: inhibitors of hydroxyurea-induced Chk1 phosphorylation, primary screen, imaging, HeLa, phospho-Chk1 antibody, percent positive cells (AID 1186); conditions: hydroxyurea-induced phospho-Chk1 immunofluorescence imaging, higher = more signal
So basically: z-score at -0.2 or higher? That is true. Lower than -0.2? That is false.

Recorded results for 4 compounds are shown here.
{"Compound": "CCOC(=O)C[C@H]1[C@H](OC(=O)c2ccc(-c3ccccc3)cc2)[C@@H](NC(=O)Cc2ccc(OC)cc2)c2cc(OCCCO)ccc2N1C(=O)Cc1ccc(OC)cc1", "Class Label": "false"}
{"Compound": "C=CCN1C(=O)[C@]2(O[C@H](CCO)[C@@H]([Si](C)(C)c3ccc(OC)cc3)[C@@H]2C)c2cc(N3C(=O)COc4ccccc43)ccc21", "Class Label": "false"}
{"Compound": "C=CCC(OC(C)=O)[C@@H]1[C@@H](N(Cc2ccc(-c3cccc(C(F)(F)F)c3)o2)C(=O)Cc2ccc(OC)cc2)c2cc(OCCCO)ccc2N1C(=O)Cc1ccc2ccccc2c1 (stereo not given in full)", "Class Label": "true"}
{"Compound": "C[C@]1(C(=O)O)c2ccccc2C(=O)N(Cc2ccc(OC(F)(F)F)cc2)[C@H]1c1ccc(CO)cc1", "Class Label": "true"}

Please find the next compound below.
Identify whether the reported z-score of the following compound is -0.2 or greater: "NC(=O)[C@H]1[C@@H]2C(=O)O[C@@H](c3ccccc3)[C@@H](c3ccccc3)N2[C@@H](c2ccc(O)cc2)[C@]12C(=O)Nc1ccccc12"
true

---

assay: A549 cell viability effects, profiling panel, calcein-AM fluorescence, 48 h, basal (AID 1162); settings: higher = more signal; also: test concentration not given here
So basically: z-score at 0.5 or higher? That is t. Lower than 0.5? That is f.

Recorded results for 4 molecules are shown here.
{"Molecule": "COc1ccc(C(O)C2C=CC3C(=O)N(c4ccccc4)C(=O)C3N2Nc2ccc(C(C)C)cc2)c2ccccc12 (centres undefined)", "Class Label": "f"}
{"Molecule": "C[C@]1(C(=O)NCC(F)(F)F)c2ccccc2C(=O)N(Cc2ccccc2)[C@H]1c1ccc(CO)cc1", "Class Label": "f"}
{"Molecule": "CCN(CC)c1ccc(N2CC=CC34O[C@@H]5C=CCCOC(=O)C5[C@H]3C(=O)N(CCO)[C@@H]4C2=O)cc1 (some centres undefined)", "Class Label": "f"}
{"Molecule": "C=CCC(OC(C)=O)[C@@H]1[C@@H](N(Cc2ccc(-c3cccc(C(F)(F)F)c3)o2)C(=O)c2cccc3ccccc23)c2cc(OCCCO)ccc2N1C(=O)Cc1ccc(OC)cc1 (some centres undefined)", "Class Label": "t"}

Identify whether the reported z-score of the following molecule is 0.5 or greater: CC(C)C(CO)N1C(=O)[C@@H]2[C@H]3C(=O)OCC=C[C@H]3OC23C=CCN(C(C)(C)C)C(=O)[C@@H]13 (some centres undefined)
f

Identify whether the reported z-score of the following molecule is 0.5 or greater: "C=C/C=C/[C@@H]1C(=C)CN([C@@H](Cc2ccccc2)C(=O)OC)[C@H]1[C@@H](O)Cc1ccccc1"
f

Identify whether the reported z-score of the following molecule is 0.5 or greater: "NC(=O)[C@H]1[C@@H]2C(=O)O[C@@H](c3ccccc3)[C@@H](c3ccccc3)N2[C@@H](c2ccc(O)cc2)[C@]12C(=O)Nc1ccc(C#CC3=CCCCC3)cc12"
f

Identify whether the reported z-score of the following molecule is 0.5 or greater: "COCC(=C=CC[C@@H](O)c1cccc(OCCO)c1)CCO"
t

Identify whether the reported z-score of the following molecule is 0.5 or greater: "Cc1ccc(N2C(=O)c3ccccc3[C@](C)(C(=O)NCc3ccccc3)[C@@H]2c2ccc(CO)cc2)nc1"
t

Identify whether the reported z-score of the following molecule is 0.5 or greater: "[N-]=[N+]=NCc1ccccc1[C@@H]1OC(c2ccc(OCCCO)cc2)=N[C@]1(Cc1ccccc1N=[N+]=[N-])C(=O)NCCN1CCOCC1"
f

Identify whether the reported z-score of the following molecule is 0.5 or greater: "O=C(N1CCOCC1)[C@@]1(CCS(=O)(=O)c2ccccc2)N=C(c2ccc(OCCCO)cc2)O[C@H]1c1ccccc1"
t

Identify whether the reported z-score of the following molecule is 0.5 or greater: "C=C[C@@H](C)[C@H](O)c1ccc(OCCO)cc1"
f
